# target-under-test: T1, Soluble mouse EPOR chimera protein (R&D Systems) (mouse, UniProt P14753 25-249)
# T1 construct: extracellular domain; Bought from R&D Systems; Amine-coupled to the SPR chip; also called erythropoietin receptor
# T1 sequence (looked up): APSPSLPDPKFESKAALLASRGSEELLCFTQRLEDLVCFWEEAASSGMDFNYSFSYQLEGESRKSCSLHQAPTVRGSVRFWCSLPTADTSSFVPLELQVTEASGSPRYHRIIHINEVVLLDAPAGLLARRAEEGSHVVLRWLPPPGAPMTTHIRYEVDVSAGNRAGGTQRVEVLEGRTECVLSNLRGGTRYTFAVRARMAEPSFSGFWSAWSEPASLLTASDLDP
# protocol-notes: SPR, mouse EPOR chimera amine-coupled to chip, peptide as analyte
measurement-label: pKd
One number for each entry, as −log10 of the molar value.

Worked cases, answers included:
1) LQLHVLKAVAGLRTLAMIRRALA [ML1-H3] : 5.94
2) LDLEVDKAVSGLRSLTTLLRALG (Charge-modified variant of ML1) [ML1-C1] : 3.82
3) LQRHVDKRVSGLRSLTTLLRALG (Charge-modified variant of ML1) [ML1-C2] : 4.93
4) LQLHVDKAVSGLRSLTTLLRALG (Synthetic monomer made by solid phase peptide synthesis; also called erythropoietin-derived peptide ML1) [ML1] : 5.19
5) LQLHVLKAVSGLLTHTTLLKALG [ML1-H1] : 5.11
6) LQRHVKKRVKGLKSLTTLLRALG (Charge-modified variant of ML1) [ML1-C3] : 5.01

Entry LQLHVLKAVSGLLTLTMIRRALG [ML1-H2] , pKd reported as 6.51
